Please go through the items and note down their furin cleavage Z-score.
- testSystem: furin, P09958;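 further: purified furin at 1:10 enzyme:substrate in 50 mM HEPES pH 7.5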
- Sequence (P09958 whole entry): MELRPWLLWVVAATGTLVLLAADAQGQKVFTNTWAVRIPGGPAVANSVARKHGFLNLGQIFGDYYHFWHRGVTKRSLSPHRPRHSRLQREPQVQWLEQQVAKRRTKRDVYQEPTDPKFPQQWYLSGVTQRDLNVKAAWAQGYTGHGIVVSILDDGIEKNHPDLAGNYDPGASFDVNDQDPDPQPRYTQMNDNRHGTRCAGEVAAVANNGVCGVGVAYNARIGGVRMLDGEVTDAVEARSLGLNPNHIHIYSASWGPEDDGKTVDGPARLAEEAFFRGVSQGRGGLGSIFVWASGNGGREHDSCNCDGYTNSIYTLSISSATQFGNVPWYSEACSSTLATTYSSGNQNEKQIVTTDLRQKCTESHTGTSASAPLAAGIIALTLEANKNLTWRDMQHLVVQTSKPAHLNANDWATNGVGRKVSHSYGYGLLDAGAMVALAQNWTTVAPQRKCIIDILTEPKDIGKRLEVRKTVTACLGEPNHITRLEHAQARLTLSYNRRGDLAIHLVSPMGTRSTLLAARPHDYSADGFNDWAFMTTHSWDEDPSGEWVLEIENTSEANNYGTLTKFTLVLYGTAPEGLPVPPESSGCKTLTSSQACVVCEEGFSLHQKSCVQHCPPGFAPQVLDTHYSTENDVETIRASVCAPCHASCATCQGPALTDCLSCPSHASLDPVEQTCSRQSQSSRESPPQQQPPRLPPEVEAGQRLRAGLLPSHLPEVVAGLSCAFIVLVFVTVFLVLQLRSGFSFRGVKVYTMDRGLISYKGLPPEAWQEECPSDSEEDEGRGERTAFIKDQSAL
- experimentalProtocol: furin cleavage Z-score vs untreated control; higher = more cleavage, active = 3.5 or more, inactive = 1 or less, 8 variable residues between constant flanks
- runConditions: 30 min
The list shows a part of the results. The hit rate among all sequences tested is not known here.
Keep the answer to the number alone.

[ask] Any idea what its furin cleavage Z-score is? The sequence is CAGVPCHRPSAGNASASA [HC2316]
[reply] 1.03

[ask] Any idea what furin cleavage Z-score was measured for CASVNRNKKSAGNASASA [FS-875] ?
[reply] 1.34

[ask] What value of furin cleavage Z-score has been recorded for this entry: CARSRRLAEQAGNASASA [FS-1933]
[reply] 3.14

[ask] Given the entry CARSKRLLSDAGNASASA [FS-2524] , report its measured furin cleavage Z-score.
[reply] 1.96
